system_name: ACC2 (Homo sapiens (Human))
assay_text: In vitro ACC inhibition assay (ADP-Glo), ACC2
Type: biochemical
run_conditions: ND630 versus RJ compounds; isoform not given; read-out: IC50 (μM) ND630/RJ-cmps(%)
measured_endpoint: IC50

Example cases with answers are listed next.
>  <molecule>
CNC(=O)C1(n2c(=O)c3c(C)c(Br)sc3n(CC(OC3CCOCC3)c3ccccc3OC)c2=O)CCC1 (stereo not shown) [Example 52]

>  <IC50>
0.003 to 0.005 µM

$$$$
>  <molecule>
COc1ccccc1[C@H](Cn1c(=O)n(C(C)(C)C(=O)O)c(=O)c2c(C)c(-c3ncco3)sc21)OC1CCOCC1 [Example 8]

>  <IC50>
0.005 to 0.01 µM

$$$$
>  <molecule>
COc1ccccc1[C@H](Cn1c(=O)n(C2(C(=O)O)CCC2)c(=O)c2c(C)c(Br)sc21)OC1CCOCC1 [Example 31]

>  <IC50>
0.003 to 0.005 µM

$$$$

Fill in: ACC2 (Homo sapiens (Human)) IC50 for COc1ccccc1[C@H](Cn1c(=O)n(C2(C(=O)O)CCC2)c(=O)c2c(C)c(CN)sc21)OC1CCOCC1 [Example 34] = 0.003 to 0.005 µM

====

Measured IC50 values are reported for all entries that follow.
system_name: ACC1 (Homo sapiens (Human))
assay_text: In vitro ACC inhibition assay (ADP-Glo), ACC1
Assay type: biochemical
Experimental: Compounds of the present invention were evaluated in an in vitro ACC inhibition assay as described by Harwood, et al, 2003, the entirety of which is incorporated herein by reference. In Vitro Acetyl-CoA Carboxylase (ACC) Inhibition Assay […] Data for each concentration, as well as the positive and negative controls were averaged, and the standard deviation calculated. […]

Example cases with answers are listed next.
>  <molecule>
CNC(=O)C1(n2c(=O)c3c(C)c(-c4ncco4)sc3n(CC(OC3CCOCC3)c3ccccc3OC)c2=O)CCC1 (stereo not shown) [Example 53]

>  <system_name>
ACC1 (Homo sapiens (Human))

>  <IC50>
0.001 to 0.01 µM

$$$$
>  <molecule>
COc1ccccc1[C@H](Cn1c(=O)n(C2(CC(N)=O)CC2)c(=O)c2c(C)c(Br)sc21)OC1CCOCC1 [Example 60]

>  <system_name>
ACC1 (Homo sapiens (Human))

>  <IC50>
0.01 to 0.05 µM

$$$$
>  <molecule>
COc1ccccc1[C@H](Cn1c(=O)n(C2(C(=O)O)CCCC2)c(=O)c2c(C)c(-n3nccn3)sc21)OC1CCOCC1 [Example 55]

>  <system_name>
ACC1 (Homo sapiens (Human))

>  <IC50>
< 0.001 µM

$$$$
>  <molecule>
COc1ccccc1[C@H](Cn1c(=O)n(C2(C(=O)O)CC2)c(=O)c2c(C)c(Br)sc21)OC1CCOCC1 [Example 29]

>  <system_name>
ACC1 (Homo sapiens (Human))

>  <IC50>
0.001 to 0.01 µM

$$$$
>  <molecule>
COc1ccccc1[C@H](Cn1c(=O)n(C2(CC(N)=O)CC2)c(=O)c2c(C)c(-c3ncco3)sc21)OC1CCOCC1 [Example 64]

>  <system_name>
ACC1 (Homo sapiens (Human))

>  <IC50>
0.001 to 0.01 µM

$$$$
>  <molecule>
CNC(=O)C1(n2c(=O)c3c(C)c(-c4ncco4)sc3n(CC(OC3CCOCC3)c3ccccc3OC)c2=O)CC1 (stereo not shown) [Example 47]

>  <system_name>
ACC1 (Homo sapiens (Human))

>  <IC50>
0.001 to 0.01 µM

$$$$

Lookup result for COc1ccccc1C(Cn1c(=O)n(C2(C(N)=O)CCC2)c(=O)c2c(C)c(Br)sc21)OC1CCOCC1 (stereo not shown) [Example 51] ; measured IC50: 0.01 to 0.05 µM

====

Test system: HepG2
assay_text: EC50 in HepG2
Assay type: cell-based
run_conditions: HepG2; read-out: EC50 (μM) HepG2
measured_endpoint: EC50

Lookup result for COc1ccccc1[C@H](Cn1c(=O)n(C2(CC(N)=O)CC2)c(=O)c2c(C)c(-c3ncco3)sc21)OC1CCOCC1 [Example 64] ; measured EC50: < 0.01 µM

Lookup result for COc1ccccc1[C@H](Cn1c(=O)n(C(C)(C)C(=O)O)c(=O)c2c(C)c(-c3nnco3)sc21)OC1CCOCC1 [Example 9] ; measured EC50: > 1 µM

Lookup result for CNC(=O)CC1(n2c(=O)c3c(C)c(Br)sc3n(C[C@H](OC3CCOCC3)c3ccccc3OC)c2=O)CC1 [Example 62] ; measured EC50: 0.01 to 0.1 µM

Lookup result for COc1ccccc1[C@H](Cn1c(=O)n(C(C)(C)C(=O)O)c(=O)c2c(C)c(-c3ncco3)sc21)OC1CCOCC1 [Example 38] ; measured EC50: 0.01 to 0.1 µM

====

Measured IC50 values are reported for all entries that follow.
system_name: ACC2 (Homo sapiens (Human), UniProt O00763)
Sequence (O00763 whole entry, species assumed): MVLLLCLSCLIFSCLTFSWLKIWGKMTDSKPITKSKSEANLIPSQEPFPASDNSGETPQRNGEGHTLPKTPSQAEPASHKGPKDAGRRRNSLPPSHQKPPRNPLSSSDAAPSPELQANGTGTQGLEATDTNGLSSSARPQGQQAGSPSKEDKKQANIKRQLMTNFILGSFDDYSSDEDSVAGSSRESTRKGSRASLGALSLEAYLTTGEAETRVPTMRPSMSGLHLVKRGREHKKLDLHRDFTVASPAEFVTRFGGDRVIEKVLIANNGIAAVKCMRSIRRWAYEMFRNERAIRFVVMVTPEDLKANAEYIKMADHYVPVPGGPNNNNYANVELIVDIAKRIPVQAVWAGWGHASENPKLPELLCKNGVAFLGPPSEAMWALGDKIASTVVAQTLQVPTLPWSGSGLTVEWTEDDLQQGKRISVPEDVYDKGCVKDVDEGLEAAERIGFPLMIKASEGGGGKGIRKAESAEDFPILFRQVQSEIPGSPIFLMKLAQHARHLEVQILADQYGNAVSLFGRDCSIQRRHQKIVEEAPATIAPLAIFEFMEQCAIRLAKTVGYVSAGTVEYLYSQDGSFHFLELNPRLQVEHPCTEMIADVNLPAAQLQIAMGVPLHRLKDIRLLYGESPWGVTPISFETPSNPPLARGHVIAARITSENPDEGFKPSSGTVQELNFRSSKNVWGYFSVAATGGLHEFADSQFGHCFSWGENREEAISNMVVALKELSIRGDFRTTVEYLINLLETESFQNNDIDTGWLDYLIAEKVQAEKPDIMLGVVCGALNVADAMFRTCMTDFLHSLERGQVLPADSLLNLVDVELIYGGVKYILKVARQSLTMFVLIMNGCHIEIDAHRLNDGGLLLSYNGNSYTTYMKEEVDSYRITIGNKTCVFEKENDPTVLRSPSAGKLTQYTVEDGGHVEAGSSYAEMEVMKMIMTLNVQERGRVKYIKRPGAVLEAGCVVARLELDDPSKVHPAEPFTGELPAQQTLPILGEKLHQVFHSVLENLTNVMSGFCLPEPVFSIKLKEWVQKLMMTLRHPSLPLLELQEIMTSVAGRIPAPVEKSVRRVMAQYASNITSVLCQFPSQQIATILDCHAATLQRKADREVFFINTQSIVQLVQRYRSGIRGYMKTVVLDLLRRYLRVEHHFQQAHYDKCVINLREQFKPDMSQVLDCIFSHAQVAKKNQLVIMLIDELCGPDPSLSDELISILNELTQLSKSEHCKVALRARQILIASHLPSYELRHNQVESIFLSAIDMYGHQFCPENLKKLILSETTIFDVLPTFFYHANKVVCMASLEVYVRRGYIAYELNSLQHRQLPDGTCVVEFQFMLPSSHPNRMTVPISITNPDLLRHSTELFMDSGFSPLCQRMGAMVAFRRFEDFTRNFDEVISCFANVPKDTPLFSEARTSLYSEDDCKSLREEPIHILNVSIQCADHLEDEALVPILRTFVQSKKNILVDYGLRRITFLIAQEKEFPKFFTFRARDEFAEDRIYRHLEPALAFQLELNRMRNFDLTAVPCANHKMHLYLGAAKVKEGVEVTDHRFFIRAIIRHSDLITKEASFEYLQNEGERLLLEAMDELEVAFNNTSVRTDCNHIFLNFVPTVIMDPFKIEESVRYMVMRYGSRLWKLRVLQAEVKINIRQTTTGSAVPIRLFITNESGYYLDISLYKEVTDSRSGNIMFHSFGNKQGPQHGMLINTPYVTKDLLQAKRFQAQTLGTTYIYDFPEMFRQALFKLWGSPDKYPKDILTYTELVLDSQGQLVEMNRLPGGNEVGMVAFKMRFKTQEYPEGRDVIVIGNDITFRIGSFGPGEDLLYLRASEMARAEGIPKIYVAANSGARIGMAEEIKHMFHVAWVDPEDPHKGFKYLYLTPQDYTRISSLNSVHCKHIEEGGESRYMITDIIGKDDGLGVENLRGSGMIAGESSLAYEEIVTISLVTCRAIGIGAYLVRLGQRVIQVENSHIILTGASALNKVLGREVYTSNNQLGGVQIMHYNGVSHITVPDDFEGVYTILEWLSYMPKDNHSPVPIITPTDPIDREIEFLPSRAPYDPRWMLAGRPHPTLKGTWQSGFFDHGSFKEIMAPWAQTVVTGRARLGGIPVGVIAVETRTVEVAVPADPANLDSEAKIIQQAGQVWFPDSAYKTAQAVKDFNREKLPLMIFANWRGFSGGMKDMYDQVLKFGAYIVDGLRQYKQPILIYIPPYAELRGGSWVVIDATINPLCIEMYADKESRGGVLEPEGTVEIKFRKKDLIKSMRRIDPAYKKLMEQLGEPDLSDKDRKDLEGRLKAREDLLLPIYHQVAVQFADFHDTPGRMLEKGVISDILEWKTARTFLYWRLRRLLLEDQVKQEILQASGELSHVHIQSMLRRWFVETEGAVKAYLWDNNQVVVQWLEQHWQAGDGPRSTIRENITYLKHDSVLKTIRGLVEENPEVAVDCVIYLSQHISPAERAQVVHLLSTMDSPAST
assay_text: In vitro ACC inhibition assay (ADP-Glo), ACC2
Type: biochemical
run_conditions: ND630 versus RJ compounds; isoform not given; read-out: IC50 (μM) ND630/RJ-cmps(%)

Example cases with answers are listed next.
>  <compound>
COc1ccccc1[C@H](Cn1c(=O)n(C2(CC(N)=O)CC2)c(=O)c2c(C)c(Br)sc21)OC1CCOCC1

>  <reported_measurement>
> 0.01 µM

$$$$
>  <compound>
COc1ccccc1C(Cn1c(=O)n(C2(C(=O)O)CCC2)c(=O)c2c(C)c(-c3ncco3)sc21)OC1CCOCC1 (stereo not drawn) [Example 37]

>  <reported_measurement>
0.005 to 0.01 µM

$$$$
>  <compound>
COc1ccccc1[C@H](Cn1c(=O)n(C(C)(C)C(=O)OC(C)(C)C)c(=O)c2c(C)c(Br)sc21)OC1CCOCC1

>  <reported_measurement>
> 0.01 µM

$$$$
>  <compound>
COc1ccccc1C(Cn1c(=O)n(C2(CC(=O)O)CC2)c(=O)c2c(C)c(-c3ncco3)sc21)OC1CCOCC1 (stereo not drawn)

>  <reported_measurement>
0.005 to 0.01 µM

$$$$
>  <compound>
COc1ccccc1C(Cn1c(=O)n(C2(C(N)=O)CCC2)c(=O)c2c(C)c(-c3ncco3)sc21)OC1CCOCC1 (stereo not drawn)

>  <reported_measurement>
0.005 to 0.01 µM

$$$$

Lookup result for `COc1ccccc1[C@H](Cn1c(=O)n(C2(C(=O)O)CC2)c(=O)c2c(C)csc21)OC1CCOCC1` ; measured IC50: 0.005 to 0.01 µM

====

System: HepG2
assay_text: EC50 in HepG2
Assay type: cell-based
run_conditions: HepG2; read-out: EC50 (μM) HepG2
measured_endpoint: EC50

>  <compound>
COc1ccccc1[C@H](Cn1c(=O)n(C2(C(=O)O)CC2)c(=O)c2cc(-c3ncco3)ccc21)OC1CCOCC1 [Example 39]

>  <EC50>
0.1 to 1 µM

$$$$
>  <compound>
COc1ccccc1C(Cn1c(=O)n(C2(C(N)=O)CCC2)c(=O)c2c(C)c(Br)sc21)OC1CCOCC1 (stereo not drawn) [Example 51]

>  <EC50>
0.01 to 0.1 µM

$$$$
>  <compound>
COc1ccccc1C(Cn1c(=O)n(C2(C(=O)O)CCCC2)c(=O)c2c(C)c(-c3ncco3)sc21)OC1CCOCC1 (stereo not drawn) [Example 36]

>  <EC50>
0.01 to 0.1 µM

$$$$
>  <compound>
CNC(=O)C1(n2c(=O)c3c(C)c(-c4ncco4)sc3n(CC(OC3CCOCC3)c3ccccc3OC)c2=O)CCC1 (stereo not drawn) [Example 53]

>  <EC50>
0.01 to 0.1 µM

$$$$
>  <compound>
CNC(=O)C1(n2c(=O)c3c(C)c(-c4ncco4)sc3n(CC(OC3CCOCC3)c3ccccc3OC)c2=O)CCCC1 (stereo not drawn) [Example 44]

>  <EC50>
< 0.01 µM

$$$$
>  <compound>
COc1ccccc1[C@H](Cn1c(=O)n(C2(C(=O)O)CCC2)c(=O)c2c(C)c(Br)sc21)OC1CCOCC1 [Example 31]

>  <EC50>
0.01 to 0.1 µM

$$$$
>  <compound>
COc1ccccc1[C@H](Cn1c(=O)n(C2(C(=O)O)CCCC2)c(=O)c2c(C)c(Br)sc21)OC1CCOCC1 [Example 30]

>  <EC50>
0.1 to 1 µM

$$$$
>  <compound>
COc1ccccc1[C@H](Cn1c(=O)n(C2(C(N)=O)CC2)c(=O)c2c(C)c(Br)sc21)OC1CCOCC1 [Example 58]

>  <EC50>
> 1 µM

$$$$
>  <compound>
COc1ccccc1[C@H](Cn1c(=O)n(C2(C(=O)O)CC2)c(=O)c2c(C)c(Br)sc21)OC1CCOCC1 [Example 29]

>  <EC50>
0.01 to 0.1 µM

$$$$
>  <compound>
CNC(=O)CC1(n2c(=O)c3c(C)c(-c4ncco4)sc3n(C[C@H](OC3CCOCC3)c3ccccc3OC)c2=O)CC1 [Example 63]

>  <EC50>
0.01 to 0.1 µM

$$$$

Lookup result for COc1ccccc1[C@H](Cn1c(=O)n(C2(CC(=O)O)CC2)c(=O)c2c(C)c(-c3ncco3)sc21)OC1CCOCC1 [Example 61] ; measured EC50: 0.1 to 1 µM
